Target: human H3 receptor (Homo sapiens, UniProt Q9Y5N1)
Sequence (Q9Y5N1 whole entry): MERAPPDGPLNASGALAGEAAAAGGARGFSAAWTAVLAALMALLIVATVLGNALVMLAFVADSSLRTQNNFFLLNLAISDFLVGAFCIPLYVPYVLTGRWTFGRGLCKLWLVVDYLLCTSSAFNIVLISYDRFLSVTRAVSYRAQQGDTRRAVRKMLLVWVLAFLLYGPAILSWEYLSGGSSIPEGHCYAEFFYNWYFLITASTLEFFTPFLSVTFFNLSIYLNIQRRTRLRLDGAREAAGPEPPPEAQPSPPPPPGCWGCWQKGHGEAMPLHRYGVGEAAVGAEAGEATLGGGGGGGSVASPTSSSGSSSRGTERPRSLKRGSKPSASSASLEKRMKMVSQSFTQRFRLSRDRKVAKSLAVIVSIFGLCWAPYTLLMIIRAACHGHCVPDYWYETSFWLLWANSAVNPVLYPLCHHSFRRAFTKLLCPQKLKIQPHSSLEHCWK
Test: H3 affinity, radioligand binding assay employing [3H](R)-α-methylhistamine
Settings: 5-point concentration response curves; read-out: H3 Ki
I'd appreciate it if you could supply Ki values for the items below.
Entry format: amount then unit.

Past entries and their recorded results:
[
  {
    "COMPOUND": "Cn1cccc1C(=O)NCCc1ccc(OCCN2CCCC2)c(Br)c1",
    "Ki": "130 nM"
  },
  {
    "COMPOUND": "C[C@H]1CCCN1CCOc1ccc(CCNC(=O)c2cc(Br)cs2)cc1Br",
    "Ki": "330 nM"
  },
  {
    "COMPOUND": "O=C(NCCc1ccc(OCCN2CC[C@@H](F)C2)c(Br)c1)c1cc(Br)cs1",
    "Ki": "1100 nM"
  },
  {
    "COMPOUND": "O=C(NCCc1ccc(OCCN2CCCC2)c(Br)c1)c1cc(Br)c[nH]1",
    "Ki": "190 nM"
  }
]

Dear reader, for each entry below, please note its Ki.
1. CN(C)CCOc1ccc(CCNC(=O)c2ccc[nH]2)cc1Br
2. O=C(NCCc1ccc(OCCN2CC[C@H](F)C2)c(Br)c1)c1cc(Br)cs1
3. CN1CCCC(COc2ccc(CCNC(=O)c3ccc(Br)o3)cc2Br)C1 (stereo not drawn)
4. CN(C)CCCOc1ccc(CCNC(=O)c2cccn2C)cc1Br
5. CN(C)CCOc1ccc(CCNC(=O)c2cc(Br)cs2)cc1Br
6. CN1CCCC(COc2ccc(CCNC(=O)c3cc(Br)cs3)cc2Br)C1 (stereo not drawn)
7. O=C(NCCc1ccc(OCCN2CCCC2)c(Br)c1)c1cccc(C(F)(F)F)n1
8. O=C(NCc1ccc(OCCN2CCCC2)c(Cl)c1)c1cc(Br)cs1

1500 nM
1100 nM
2100 nM
1700 nM
670 nM
1200 nM
270 nM
1100 nM

Dear reader, for each entry below, please note its Ki.
1. O=C(NCCc1ccc(OCCN2CCCC2)c(Br)c1)c1cccc(Br)c1
2. O=C(NCCc1ccc(OCCN2CCCC2)c(Br)c1)c1cnco1
3. CN1CCCC(COc2ccc(CCNC(=O)c3cc(Br)c[nH]3)cc2Br)C1 (stereo not drawn)
4. O=C(NCCc1ccc(OCCN2CCCC2)c(Br)c1)c1cc(Br)cs1
5. CN(C)CCOc1ccc(CCNC(=O)c2cccn2C)cc1Br
6. O=C(NCCc1ccc(OCCN2CCCC2)c(Br)c1)c1ccc(Br)o1
7. CN(C)CCOc1ccc(CCNC(=O)c2ccc(Br)o2)cc1Br
8. CN1CCCC(COc2ccc(CCNC(=O)c3cccn3C)cc2Br)C1 (stereo not drawn)

210 nM
37 nM
1300 nM
80 nM
2100 nM
170 nM
2700 nM
910 nM

API: value(readout= Ki, system= human H3 receptor (Homo sapiens, UniProt Q9Y5N1), query= O=C(NCCc1ccc(OCCN2CCCC2)c(Br)c1)c1cccc(C(F)(F)F)c1 )
440 nM

---

Target: UniProt Q9Y5N1
Assay: H3 antagonist activity / inhibition (IC50)
Assay type: biochemical
Conditions: 5-point concentration response curves; read-out: H3 IC50
From the text: In one aspect, H3 affinity (Ki) and inhibition (IC50) can be determined in 5-point concentration response curves. Using data obtained from such methods, SAR can be established.
MEASURE: IC50 (µM)
Numbers only, in µM.

Past entries and their recorded results:
[
  {
    "MOLECULE": "C[C@H]1CCCN1CCOc1ccc(CCNC(=O)c2cc(Br)cs2)cc1Br",
    "ASSAY TARGET": "UniProt Q9Y5N1",
    "IC50 / µM": 0.75
  },
  {
    "MOLECULE": "O=C(NCCc1ccc(OCCN2CCCC2)c(Br)c1)c1cccc(Cl)c1",
    "ASSAY TARGET": "UniProt Q9Y5N1",
    "IC50 / µM": 0.55
  },
  {
    "MOLECULE": "C[C@@H]1CCCN1CCOc1ccc(CCNC(=O)c2cc(Br)cs2)cc1Br",
    "ASSAY TARGET": "UniProt Q9Y5N1",
    "IC50 / µM": 0.71
  },
  {
    "MOLECULE": "CN1CCCC(COc2ccc(CCNC(=O)c3cc(Br)c[nH]3)cc2Br)C1 (stereo not drawn)",
    "ASSAY TARGET": "UniProt Q9Y5N1",
    "IC50 / µM": 2.9
  },
  {
    "MOLECULE": "CN1CCCC(COc2ccc(CCNC(=O)c3ccc[nH]3)cc2Br)C1 (stereo not drawn)",
    "ASSAY TARGET": "UniProt Q9Y5N1",
    "IC50 / µM": 3.6
  }
]

Consider now this further molecule.
Would you mind telling me what IC50 value was observed for CN(C)CCOc1ccc(CCNC(=O)c2cccn2C)cc1Br ?
4.5
